Origin of measurements: paper PMC13385394

- PROCEDURE TEXT: Pharmacokinetics in mouse after p.o. and i.v. administration
- Assay type: in vivo
- SETUP CONDITIONS: C57BL/6J, mouse, in vivo, iv, 2 mg/kg, mouse 2mg/kg i.v.; individual animals 4-6
ASSAY READOUT: AUC(0-t) (ng·h/mL)
Number in ng·h/mL, nothing else.

Input: What does the record list as AUC(0-t) for CN(C)CCCCn1c(=O)c2c(nc(Oc3cccc(Cl)c3)n2Cc2ccc(Cl)cc2)n(C)c1=O [H08] ?
Output: 385

---

- PROCEDURE TEXT: Pharmacokinetics in mouse after p.o. and i.v. administration
- Assay type: in vivo
- SETUP CONDITIONS: C57BL/6J, mouse, in vivo, iv, 2 mg/kg, mouse 2mg/kg i.v.; Mean
ASSAY READOUT: half-life
Field: value (include unit after the number)

Input: What does the record list as half-life for CN(C)CCCCn1c(=O)c2c(nc(Oc3cccc(Cl)c3)n2Cc2ccc(Cl)cc2)n(C)c1=O [H08] ?
Output: 3.09 h
